Molecular target: T1, chimeric Ig-EPOR protein (human; murine, UniProt P19235 25-250)
T1 construct: extracellular domain; Secreted from COS-7 cells transfected with pcDNA3-IgG1-EPOR; major species about 59 kDa; also called IgG-EPOR; chimeric receptor; not shown: hinge region, CH2 and CH3 domains of the murine IgG1 heavy chain
T1 sequence (looked up): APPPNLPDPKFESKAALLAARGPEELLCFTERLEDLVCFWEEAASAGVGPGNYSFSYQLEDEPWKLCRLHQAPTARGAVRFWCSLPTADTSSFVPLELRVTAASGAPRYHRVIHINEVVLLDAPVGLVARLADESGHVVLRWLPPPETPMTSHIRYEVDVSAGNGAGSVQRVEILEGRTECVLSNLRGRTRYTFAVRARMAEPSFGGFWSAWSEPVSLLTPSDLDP
Test: biopanning of the ERB1 evolved library with Ig-EPOR (FIG. 4)
Reported endpoint: binding result

Task item: Given QVDTCTRGWVGHCNAWMGDEYAKTPGLPMPQSDYLKPR (not shown: M13 phage pIII coat protein) [phage clone B15] , state its recorded binding result.
Reply: binds

Task item: Follow-up item: DFEDCQGGWVGHCNDWLGDEYARHPRYGATQTLSVNRH (not shown: M13 phage pIII coat protein) [phage clone B9]
Reply: binds

Task item: Follow-up item: DLAGCRRGWVGHCSEWLRDEYTSNPRYPVAPSYRLQPP (not shown: M13 phage pIII coat protein) [phage clone B20]
Reply: binds
